Numbers sourced from patent US20230058171A1.

Assay: Preliminary pharmacokinetics in trial 1403-0001 (Arm A D1 q3w, Arm B D1 D8 q4w)
Format: in vivo, human
Conditions: human, plasma, oral, 50 mg, Arm A D1 q3w, 50 mg, N=4; read-out: Vz/F, gMean (gCV [%])
Source text: Preliminary PK data were available from the first 45 treated patients in study 1403-0001. The exploratory PK analysis is based on planned blood sampling time-points and the results are subject to change because not all samples from these patients have been analyzed yet. Therefore, AUCs may be incomplete. […]
recordedMetric: Vd/F

Would you mind telling me what Vd/F value was observed for Cc1c(C(=O)O)ccc2c3n(nc12)[C@@H]1[C@H](C3)N(CC2CC2)[C@@]2(C(=O)Nc3cc(Cl)ccc32)[C@H]1c1cccc(Cl)c1F [MDM2-antagonist of formula I] ?
23.7 L

---

assay: Preliminary pharmacokinetics in trial 1403-0001 (Arm A D1 q3w, Arm B D1 D8 q4w); type: in vivo, human; details: human, plasma, oral, 20 mg, Day 8, D1 D8 q4w (Arm B), median, N=3; read-out: tmax
recordedMetric: Tmax (h)
Record the value in h, omitting the unit from your answer.

Any idea what its Tmax is? The molecule is Cc1c(C(=O)O)ccc2c3n(nc12)[C@@H]1[C@H](C3)N(CC2CC2)[C@@]2(C(=O)Nc3cc(Cl)ccc32)[C@H]1c1cccc(Cl)c1F [MDM2-antagonist of formula I]
3

---

assay: Preliminary pharmacokinetics in trial 1403-0001 (Arm A D1 q3w, Arm B D1 D8 q4w); assay type: in vivo, human; settings: human, plasma, oral, 10 mg, Day 8, D1 D8 q4w (Arm B), gMean, N=3; read-out: Cmax
recordedMetric: Cmax (µM)
Give a bare numeral; the unit µM is implied.

Reported Cmax for "Cc1c(C(=O)O)ccc2c3n(nc12)[C@@H]1[C@H](C3)N(CC2CC2)[C@@]2(C(=O)Nc3cc(Cl)ccc32)[C@H]1c1cccc(Cl)c1F" : what is it?
0.714

---

test: Preliminary pharmacokinetics in trial 1403-0001 (Arm A D1 q3w, Arm B D1 D8 q4w); type: in vivo, human; settings: human, plasma, oral, 60 mg, Day 8, D1 D8 q4w (Arm B), gMean, N=2; read-out: Cmax
recordedMetric: Cmax (nM)
Your answer is read as nM, so omit the unit and give the number.

Entry under review: Cc1c(C(=O)O)ccc2c3n(nc12)[C@@H]1[C@H](C3)N(CC2CC2)[C@@]2(C(=O)Nc3cc(Cl)ccc32)[C@H]1c1cccc(Cl)c1F [MDM2-antagonist of formula I] . Reported Cmax?
1890

---

Experiment: Preliminary pharmacokinetics in trial 1403-0001 (Arm A D1 q3w, Arm B D1 D8 q4w)
Type: in vivo, human
Details: human, plasma, oral, 5 mg, Day 1, D1 D8 q4w (Arm B), gMean, N=3; read-out: AUC0-∞
Source text: Preliminary PK data were available from the first 45 treated patients in study 1403-0001. The exploratory PK analysis is based on planned blood sampling time-points and the results are subject to change because not all samples from these patients have been analyzed yet. Therefore, AUCs may be incomplete. […]
recordedMetric: AUC(0-inf) (µM·h)
Numbers only here, please. The scale is µM·h.

Any idea what its AUC(0-inf) is? The compound is "Cc1c(C(=O)O)ccc2c3n(nc12)[C@@H]1[C@H](C3)N(CC2CC2)[C@@]2(C(=O)Nc3cc(Cl)ccc32)[C@H]1c1cccc(Cl)c1F"
17.6
